Numbers sourced from ChEMBL document CHEMBL5625223.

Ki, Adenosine receptor A3 (Homo sapiens), per-entry values.
observable: Ki (µM)

>  <lineNotation>
CSC[C@@]12C[C@@H]1[C@@H](n1cnc3c(N)nc(I)nc31)[C@H](O)[C@@H]2O

>  <testedSystem>
Adenosine receptor A3 (Homo sapiens)
Sequence (P0DMS8 whole entry): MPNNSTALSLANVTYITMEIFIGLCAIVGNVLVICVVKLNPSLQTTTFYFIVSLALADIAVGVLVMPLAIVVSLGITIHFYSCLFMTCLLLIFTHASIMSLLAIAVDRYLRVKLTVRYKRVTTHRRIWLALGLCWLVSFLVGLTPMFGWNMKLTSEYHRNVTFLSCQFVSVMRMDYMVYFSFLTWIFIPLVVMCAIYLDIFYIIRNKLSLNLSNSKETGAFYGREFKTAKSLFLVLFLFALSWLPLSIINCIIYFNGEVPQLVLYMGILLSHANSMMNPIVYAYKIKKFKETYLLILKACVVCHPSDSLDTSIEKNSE

>  <observable>
Ki

>  <measuredNumber>
0.0925

$$$$
>  <lineNotation>
O[C@H]1[C@H](n2cnc3c(NC(C4CCCCC4)C4CCCCC4)nc(Cl)nc32)[C@H]2C[C@@]2(CF)[C@H]1O

>  <testedSystem>
Adenosine receptor A3 (Homo sapiens)

>  <observable>
Ki

>  <measuredNumber>
5.04

$$$$
>  <lineNotation>
CSC[C@@]12C[C@@H]1[C@@H](n1cnc3c(NC(C4CC4)C4CC4)nc(Cl)nc31)[C@H](O)[C@@H]2O

>  <testedSystem>
Adenosine receptor A3 (Homo sapiens)

>  <observable>
Ki

>  <measuredNumber>
0.932

$$$$
>  <lineNotation>
OC[C@@]12C[C@@H]1[C@@H](n1cnc3c(NC(C4CC4)C4CC4)nc(I)nc31)[C@H](O)[C@@H]2O

>  <testedSystem>
Adenosine receptor A3 (Homo sapiens)

>  <observable>
Ki

>  <measuredNumber>
7.81

$$$$

* * *

Form field: Activity (one value per entry).
- testedSystem: 5-hydroxytryptamine receptor 2A (Homo sapiens, UniProt P28223)
- Sequence (P28223 whole entry): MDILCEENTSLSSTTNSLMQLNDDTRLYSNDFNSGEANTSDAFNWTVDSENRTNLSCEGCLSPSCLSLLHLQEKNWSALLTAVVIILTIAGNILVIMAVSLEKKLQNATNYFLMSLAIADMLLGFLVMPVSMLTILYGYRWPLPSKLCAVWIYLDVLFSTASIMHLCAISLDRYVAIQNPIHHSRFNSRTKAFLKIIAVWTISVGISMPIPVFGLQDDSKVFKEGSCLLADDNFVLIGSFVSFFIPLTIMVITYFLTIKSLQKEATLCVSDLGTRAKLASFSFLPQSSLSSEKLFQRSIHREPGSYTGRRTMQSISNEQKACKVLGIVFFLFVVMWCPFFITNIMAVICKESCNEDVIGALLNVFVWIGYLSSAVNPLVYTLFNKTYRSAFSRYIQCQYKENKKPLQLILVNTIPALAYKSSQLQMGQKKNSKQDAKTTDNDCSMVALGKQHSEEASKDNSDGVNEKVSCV
- assayInfo: Binding affinity to 5HT2A receptor (unknown origin) at 10 uM relative to control

>  <lineNotation>
O[C@H]1[C@H](n2cnc3c(NC(C4CCC4)C4CCC4)nc(Cl)nc32)[C@H]2C[C@@]2(CCl)[C@H]1O

>  <Activity, %>
28

$$$$
>  <lineNotation>
OC[C@H]1O[C@@H](n2cnc3c(NC(C4CCC4)C4CCC4)nc(Cl)nc32)[C@H](O)[C@@H]1O

>  <Activity, %>
31

$$$$
>  <lineNotation>
O[C@@H]1[C@H](O)[C@@H]2C[C@@H]2[C@H]1n1ccc2c(NC(C3CC3)C3CC3)nc(I)nc21

>  <Activity, %>
3

$$$$
>  <lineNotation>
O[C@H]1[C@H](n2cnc3c(NC(C4CCC4)C4CCC4)nc(Cl)nc32)[C@H]2C[C@@]2(CSc2ccccc2F)[C@H]1O

>  <Activity, %>
21

$$$$
>  <lineNotation>
CNC(=O)[C@]12C[C@@H]1[C@@H](n1cnc3c(NC4CCCC4)nc(Cl)nc31)[C@H](O)[C@@H]2O

>  <Activity, %>
0

$$$$
>  <lineNotation>
O[C@H]1[C@H](n2cnc3c(NC(C4CCC4)C4CCC4)ncnc32)[C@H]2C[C@@]2(CCl)[C@H]1O

>  <Activity, %>
11

$$$$
>  <lineNotation>
CCOC(=O)[C@@]12C[C@@H]1[C@@H](n1cnc3c(NC(C4CCC4)C4CCC4)nc(Cl)nc31)[C@H](O)[C@@H]2O

>  <Activity, %>
35

$$$$

* * *

Ki, UniProt P13945, per-entry values.
Sequence (P13945 whole entry): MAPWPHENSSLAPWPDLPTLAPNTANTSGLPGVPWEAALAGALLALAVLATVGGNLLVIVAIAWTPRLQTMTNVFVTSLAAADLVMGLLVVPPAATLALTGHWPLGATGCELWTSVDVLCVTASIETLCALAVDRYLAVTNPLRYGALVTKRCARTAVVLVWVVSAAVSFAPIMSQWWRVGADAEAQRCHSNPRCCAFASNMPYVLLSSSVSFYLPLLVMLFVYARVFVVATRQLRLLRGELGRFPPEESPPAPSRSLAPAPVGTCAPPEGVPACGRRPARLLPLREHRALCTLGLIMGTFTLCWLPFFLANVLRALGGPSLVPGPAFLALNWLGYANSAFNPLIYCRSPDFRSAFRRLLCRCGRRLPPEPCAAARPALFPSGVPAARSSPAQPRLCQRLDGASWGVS

>  <lineNotation>
COc1ccc(SC[C@@]23C[C@@H]2[C@@H](n2cnc4c(NC(C5CCCC5)C5CCCC5)nc(Cl)nc42)[C@H](O)[C@@H]3O)cc1OC

>  <testedSystem>
UniProt P13945

>  <Ki>
2100 nM

$$$$
>  <lineNotation>
CCSC[C@@]12C[C@@H]1[C@@H](n1cnc3c(NC(C4CCCC4)C4CCCC4)nc(Cl)nc31)[C@H](O)[C@@H]2O

>  <testedSystem>
UniProt P13945

>  <Ki>
1500 nM

$$$$
